The origin of these recorded values is patent US20140072563A1.

Molecular target: hErbB3.mmh (soluble monomeric human ErbB3 extracellular domain with C-terminal myc-myc-hexahistidine tag) (human, UniProt P21860 20-642)
Sequence (P21860 other isoform, or with tags, fused parts or gaps): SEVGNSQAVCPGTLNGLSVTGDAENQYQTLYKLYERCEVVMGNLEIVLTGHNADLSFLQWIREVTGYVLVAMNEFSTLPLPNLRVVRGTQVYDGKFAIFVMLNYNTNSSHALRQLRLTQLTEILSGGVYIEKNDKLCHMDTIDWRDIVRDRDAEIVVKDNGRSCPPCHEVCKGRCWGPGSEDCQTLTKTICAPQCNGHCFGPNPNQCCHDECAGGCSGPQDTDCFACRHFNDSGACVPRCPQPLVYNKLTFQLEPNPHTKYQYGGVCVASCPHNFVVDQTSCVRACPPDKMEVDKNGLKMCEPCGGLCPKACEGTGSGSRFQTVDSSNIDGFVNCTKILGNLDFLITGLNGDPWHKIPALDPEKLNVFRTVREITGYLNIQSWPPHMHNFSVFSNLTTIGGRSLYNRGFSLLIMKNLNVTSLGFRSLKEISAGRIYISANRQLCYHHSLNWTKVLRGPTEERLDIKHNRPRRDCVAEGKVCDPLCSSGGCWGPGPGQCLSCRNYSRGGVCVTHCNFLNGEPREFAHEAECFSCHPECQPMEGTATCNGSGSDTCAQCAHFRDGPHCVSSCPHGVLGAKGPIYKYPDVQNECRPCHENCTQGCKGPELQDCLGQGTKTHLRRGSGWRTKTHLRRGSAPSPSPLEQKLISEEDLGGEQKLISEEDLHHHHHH
Assay: SPR (Biacore), 25 C, mAb capture format
Protocol: (Tables 2-4). Measurements were conducted on a Biacore 2000 or T100 instrument. […] Kinetic association (kₐ) and dissociation (kd) rate constants were determined by processing and fitting the data to a 1:1 binding model using Scrubber 2.0 curve fitting software.
Task for the reader: assign each of the following binders its reported kon.
Only the number, expressed in M⁻¹ s⁻¹, is required.

Quick one: kon for H4H2084P (antibody, V domains shown, Fully human, human IgG4 Fc (H4H prefix)) VH: QVQLVESGGGVVQSGKSLRLSCVASGFTFSNYGMHWVRQTPGKGLEWVARIWFDGTNKYYTDSVKGRFTLSRDSSKNTLYLQMNSLRAEDTAVYFCAREESLELDHYVMDVWGQGTTVTVSS VL: AIQMTQSPSSLSASVGDRVTITCRASQDIRDDLGWFQQKPGKAPNLLIYAASSLQSGVPSRFSGSGSGTDFTLTISSLQPEDFATYYCLQDYNYPLTFGGGTKVEIKR ? 2.49e+06

Quick one: kon for H1M1828N (antibody, V domains shown, Hybridoma chimeric antibody: human variable domains, mouse constant domains (H1M prefix, mouse Fc)) VH: EVQLVESGGGLVQPGRSLRLSCAASGFTFDDYAMYWVRQAPGKGLEWVSGISWNSGSIGYADSVKGRFTISRDNAKNSLYLQMDSLRAEDTALYYCARDMMEVDLYGMDVWGQGTTVTVSS VL: DIQMTQSPSSVSASVGDRVTITCRASQDISSWLAWYQQKPGTAPKFLIYETSSLQSGVPSRFSGSGSGTDFILTISSLQPEDFATYYCQQTDSFPHTFGQGTKLEIR ? 513000

Quick one: kon for H1M1819N (antibody, V domains shown, Hybridoma chimeric antibody: human variable domains, mouse constant domains (H1M prefix, mouse Fc)) VH: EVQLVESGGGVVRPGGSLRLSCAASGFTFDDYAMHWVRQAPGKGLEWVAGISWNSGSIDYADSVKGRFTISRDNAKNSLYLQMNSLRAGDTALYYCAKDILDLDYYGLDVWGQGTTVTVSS VL: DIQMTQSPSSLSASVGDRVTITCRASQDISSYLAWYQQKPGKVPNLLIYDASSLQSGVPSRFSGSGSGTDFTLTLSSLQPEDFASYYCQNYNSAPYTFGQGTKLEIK ? 319000
